experiment: self-splicing fitness, log relative to wild type (ln ratio); higher = more splicing; Tetrahymena group I intron in knt gene, E. coli kanamycin selection, DiMSum; sequences stand for … in CUCUCU…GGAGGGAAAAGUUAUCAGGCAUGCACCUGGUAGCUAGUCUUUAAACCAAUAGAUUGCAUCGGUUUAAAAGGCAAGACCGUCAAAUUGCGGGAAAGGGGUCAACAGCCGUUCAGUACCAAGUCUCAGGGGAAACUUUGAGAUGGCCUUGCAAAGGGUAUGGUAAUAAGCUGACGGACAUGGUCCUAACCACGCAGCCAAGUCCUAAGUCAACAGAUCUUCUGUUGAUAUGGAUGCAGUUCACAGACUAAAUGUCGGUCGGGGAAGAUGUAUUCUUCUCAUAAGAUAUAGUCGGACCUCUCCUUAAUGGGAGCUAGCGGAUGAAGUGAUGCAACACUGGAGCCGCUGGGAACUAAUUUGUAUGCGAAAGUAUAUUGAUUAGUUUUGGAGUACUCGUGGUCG; settings: 30 °C;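 further: selection with 25 µg/mL kanamycin versus none on LB agar overnight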
measured_metric: self-splicing fitness (ln)
Give your answer as a number; write no unit.

These recorded examples may help you get a feel for the data.
>>> print(df.to_string())
               sequence             measured_metric  recorded_measurement
0  GUGCAGCAAUAUUACGCAUA  self-splicing fitness (ln)                  -1.7
1  CGCCAGCAAUAUUACGAAUG  self-splicing fitness (ln)                -0.783
2  CACCAGCAAUAUUACGUCCC  self-splicing fitness (ln)                 -4.07

Query: Give me measured self-splicing fitness (ln), please, for this sequence: `CUAGAGCAAUAUUACGGAGA`
Reply: -2.51

Query: Give me measured self-splicing fitness (ln), please, for this sequence: `UUAAAGCAAUAUUACGCUAU`
Reply: -3.01

Query: Give me measured self-splicing fitness (ln), please, for this sequence: `GCAAAGCAAUAUUACGCCGG`
Reply: -2.44

----------
assay: self-splicing fitness, log relative to wild type (ln ratio); higher = more splicing; Tetrahymena group I intron in knt gene, E. coli kanamycin selection, DiMSum; sequences stand for … in CUCUCU…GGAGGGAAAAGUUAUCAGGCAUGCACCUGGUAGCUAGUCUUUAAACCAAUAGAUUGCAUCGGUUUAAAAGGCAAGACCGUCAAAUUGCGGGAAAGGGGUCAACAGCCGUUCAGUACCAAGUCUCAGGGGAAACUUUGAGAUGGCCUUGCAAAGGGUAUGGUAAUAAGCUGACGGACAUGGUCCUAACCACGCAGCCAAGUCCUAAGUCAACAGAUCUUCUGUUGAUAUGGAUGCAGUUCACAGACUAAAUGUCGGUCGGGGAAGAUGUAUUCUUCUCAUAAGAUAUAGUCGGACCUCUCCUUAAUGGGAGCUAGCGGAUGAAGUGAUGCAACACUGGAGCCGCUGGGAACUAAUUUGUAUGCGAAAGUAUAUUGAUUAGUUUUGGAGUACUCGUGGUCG; details: 30 °C
measured_metric: self-splicing fitness (ln)
Give your answer as a number; write no unit.

               sequence             measured_metric  recorded_measurement
0  CUGGAGCAAUAUUACGAAUA  self-splicing fitness (ln)                 -3.07
1  CUGAAGCAAUAUUACGGCUA  self-splicing fitness (ln)                 -3.03
2  AGAGAGCAAUAUUACGUCAA  self-splicing fitness (ln)                 -2.29
3  UUUAAGCAAUAUUACGUGAU  self-splicing fitness (ln)                 -2.59

Query: Give me measured self-splicing fitness (ln), please, for this sequence: `GCCUAGCAAUAUUACGGAAC`
Reply: -0.183

Query: Give me measured self-splicing fitness (ln), please, for this sequence: `CCUCAGCAAUAUUACGUAUG`
Reply: -1.75

Query: Give me measured self-splicing fitness (ln), please, for this sequence: `GUCAAGCAAUAUUACGUUGA`
Reply: -2.64

Query: Give me measured self-splicing fitness (ln), please, for this sequence: `AGCGAGCAAUAUUACGUUGU`
Reply: -3.39

Query: Give me measured self-splicing fitness (ln), please, for this sequence: `GCCAAGCAAUAUUACGUCAG`
Reply: -3.6

Hey, just so you know, these numbers are from the supplement of paper PMC7877785.
